# Tested on: human mAChR M4 (Homo sapiens, UniProt P08173)
# Sequence (P08173 whole entry): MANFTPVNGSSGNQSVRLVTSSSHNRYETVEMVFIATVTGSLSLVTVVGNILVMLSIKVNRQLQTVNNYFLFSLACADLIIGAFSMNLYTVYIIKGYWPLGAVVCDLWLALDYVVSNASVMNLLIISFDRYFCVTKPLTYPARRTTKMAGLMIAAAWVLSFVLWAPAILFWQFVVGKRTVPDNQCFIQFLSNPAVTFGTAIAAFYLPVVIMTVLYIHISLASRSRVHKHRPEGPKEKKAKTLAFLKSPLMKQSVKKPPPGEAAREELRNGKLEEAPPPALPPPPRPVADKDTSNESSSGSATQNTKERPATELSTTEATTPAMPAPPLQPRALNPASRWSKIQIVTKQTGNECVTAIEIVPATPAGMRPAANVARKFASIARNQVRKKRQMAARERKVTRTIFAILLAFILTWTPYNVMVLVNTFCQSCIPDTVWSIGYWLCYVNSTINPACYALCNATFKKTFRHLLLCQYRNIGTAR
# Test: mAChR M4 cell-based functional assay: calcium mobilization (Fluo-4, FDSS), potentiation of EC20 acetylcholine response in hM4-Gqi5 CHO-K1 cells
# Protocol conditions: potentiation of EC20 acetylcholine response, calcium mobilization, human M4
Readout name: EC50 (nM)

A selection of reference data follows.
COc1ccc(-c2cnc3c(c2)CN(c2nn4c(=O)cc(C)nc4cc2C)CC3)cn1 [Compound 1-71]
145
Cc1cc(=O)n2nc(N3CCc4ncc(-c5c(C)nn(C)c5C)cc4C3)c(C)cc2n1 [Compound 1-218]
793
COCc1cc(=O)n2nc(N3CCc4ncc(-c5ccncc5)cc4C3)c(C)cc2n1 [Compound 1-362]
337
Cc1cscc1-c1cnc2c(c1)CN(c1nn3c(=O)ccnc3cc1C)CC2 [Compound 1-394]
74

(P) COCc1cc(=O)n2nc(N3CCc4ncc(-c5ccco5)cc4C3)c(C)cc2n1 [Compound 1-371]
(Q) Cc1cc2nccc(=O)n2nc1N1CCc2ncc(N3CCO[C@H](C)C3)cc2C1 [Compound 2-2]
(R) Cc1cc(=O)n2nc(N3CCc4ncc(-c5ccc(N(C)C)nc5)cc4C3)c(C)c(C)c2n1 [Compound 1-121]
Ask: # sort list by recorded EC50, greatest to least # format: label list in the order the request specifies
Result: R, Q, P
(R: 722 nM, Q: 363 nM, P: 140 nM)

(P) Cc1ccc(F)cc1-c1cnc2c(c1)CN(c1nn3c(=O)cc(C(F)F)nc3c(C)c1C)CC2 [Compound 1-171]
(Q) Cc1cc2nc(C(=O)NC3(C#N)CC3)cc(=O)n2nc1N1CCc2ncc(C(F)(F)F)cc2C1 [Compound 1-46]
Ask: Compare P and Q by numeric EC50 and name the larger one. Identify your pick by its label.
Result: P

(P) Cc1c(N2CCc3ncc(N4CCC(F)(F)CC4)cc3C2)nn2c(=O)cc(C(F)F)nc2c1C [Compound 2-48]
(Q) Cc1cc2nc(C)c(C)c(=O)n2nc1N1CCc2ncc(N3CCCn4nccc43)cc2C1 [Compound 2-13]
Ask: Could you tell me which of these two has the smaller EC50 figure? First: P Second: Q Let me know the label of the one you choose.
Result: Q

(P) Cc1c(N2CCc3ncc(-c4ccc(F)cc4F)cc3C2)nn2c(=O)ccnc2c1C [Compound 1-347]
(Q) Cc1cc2nc(C)c(Cl)c(=O)n2nc1N1CCc2ncc(N3CCCn4nccc43)cc2C1 [Compound 2-16]
Ask: Which record would sort first by descending EC50, P or Q ? Your choice should be expressed through its label.
Result: P

These entries and their values trace back to patent US20250101041A1.
